Each entry below lists one item and its recorded koff value.
# Target Or System: SARS-COV-2 RBD-MMH (SARS-COV-2 RBD extracellular domain with C-terminal myc-myc-hexahistidine tag) (SARS-CoV-2)
Your answer should be a plain number; it is taken to be in s⁻¹.

Worked examples follow.
[[record]]
binder = "mAb14247 (antibody, V domains shown) VH: QITLKESGPTLVKPTQTLTLTCTFSGFSLSTSAVGVGWIRQPPGKALEWLALIYWDDDKRYSPSLKSRLTITKDTSKNQLVLTMTNVDPVDTATYYCAHHTIQLIFDYWGQGTLVTVSS VL: QSALTQPASVSGSPGQSITISCTATSSDVGNYNYVSWYQQHPGKAPKLMIYEVSNRPSGVSNRFSGSKSGNTASLTISGLQAEDEADYYCSSYTSSSTPLVFGGGTKLTVLG"
measured_property = "koff"
unit_label = "s⁻¹"
value_measured = 0.00167

[[record]]
binder = "mAb15157 (antibody, V domains shown) VH: EVQLVESGGALVQPGGSLRLSCAASGFPFTIYAMTWVRQAPGKGLEWVSVITGSGDSTYYADSVKGRFTISRDNSKNTLYLQMNSLRAEDTAVYYCVKTGEGFFYYYYGMDVWGQGTTVTVSS VL: QSVLTQPPSVSAAPGQKVTISCSGSSSNIGNSYISWYQQLPGTAPKLLIYVNNKRPSGIPDRFSGSKSGTSATLGITGLQTGDEADYYCGTWDSSLSAGVFGSGTKVTVLG"
measured_property = "koff"
unit_label = "s⁻¹"
value_measured = 0.00766

[[record]]
binder = "mAb14256 (antibody, V domains shown) VH: QVQLQESGPGLVKPSETLSLTCTVSGGSISSHYWSWIRQPPGKGLEWIGYIYYSGSSNYNPSLKSRVTISVDTSKNQFSLKLNSVTAADTAVYYCARHYDILTGFDWFDPWGQGTLVTVSS VL: QSVLTQPPSVSGAPGQRVTISCTGSSSNIGTHYDVHWYQQLPGTAPKLLIYGNSNRPSGVPDRFSGSKSGTSASLAITGLQAEDEADYYCQSFDNSLTAPYVFGTGTKVTVLG"
measured_property = "koff"
unit_label = "s⁻¹"
value_measured = 0.00955

[[record]]
binder = "mAb14312 (antibody, V domains shown) VH: EVQLVESGGGLVQPGGSLRLSCAASGFTVSRSYMTWVRQAPGKGLEWVSVIFTGGRTDHADSVKGRFTISRHNSKNTLYLQMNSLRTEDTAVYYCARVAIVGATGAFDIWGQGTMVTVSS VL: QSVLTQPPSVSGAPGQRVTISCTGSSSNIGAGDDVHWYQQLPGTAPKLLIYGNSNRPSGVPDRFSGSKSGTSASLAITGLQAEDEADYYCQSYDSSLSGSVVFGGGTKLTVLG"
measured_property = "koff"
unit_label = "s⁻¹"
value_measured = 0.00177

[[record]]
binder = "mAb14282 (antibody, V domains shown) VH: QVQLVQSGAEVKKPGASVKVSCKASGYIFTDHYMHWVRQAPGQGLEWMGWINPNSGATNYAQNFQGRVTMTRDTSIITVYMELSRLRSDDTAVYYCARDSSPYMIRYTMDVWGQGTTITVSS VL: QSALTQPASVSGSPGQSITISCTGTSSDVGSYNLVSWYQQHPGKAPKLMIYELTKRPSGVSNRFSGSKSGNTASLTISGLQAEDEADYYCSSYRGSVTDVVFGGGTKLTVLG"
measured_property = "koff"
unit_label = "s⁻¹"
value_measured = 0.00985

[[record]]
binder = "mAb14232 (antibody, V domains shown) VH: QITLKESGPTLVKPTQTLTLTCTFSGFSLSASGVGVGWIRQPPGKALEWLALIYWDDDKRYSPSLKSRLTITKDTSKNQVVLTMTNMDPVDTATYYCAQHKVATIFDYWGQGTLVTVSS VL: QSALTQPPSASGSPGQSVTISCTATSSDVGNYNYVSWYQQHPGKAPKLMIYEVTKRPSGVPDRFSGSKSGNTASLTVSGLQAEDEADYYCSSYAGSWGVFGGGTKLTVLG"
measured_property = "koff"
unit_label = "s⁻¹"
value_measured = 0.0124


Field koff (entry mAb15170 (antibody, V domains shown) VH: EVQLVESGGGLVQPGGSLRLSCAATGITVSSNYMSWVRQAPGKGLEWVSLIYSGGSTFYADSVKGRFTISRHNSKNTLYLQMSSLRAEDTAVYYCARDLVDFGMDVWGQGTTVTVSS VL: DIQLTQSPSSLSASVGDRVTITCRASQGISNYLAWYQQKPGKAPKLLIYAASTLQSGVPSRFSGSGSGTDFTLTISSLQPEDFGTYYCQQLNSDSPTFGQGTKVEIKR ) reads 8e-05

Field koff (entry mAb14257 (antibody, V domains shown) VH: EVQLVESGGGLVQPGGSLRLSCAASGFTVSRSYMNWVRQAPGKGLEWVSVVFTGGTTKHTDSVKGRFTISRDNSMNTLYLQMNSLRPEDTAVYYCARVAIVETTGAFDIWGQGTMVTVSS VL: QSVLTQPPSVSGAPGQRVTISCTGTSSNIGADFDVHWYQQFPGTAPKLLIYGHTNRPSGIPDRFSGSKSGTSASLAITGLQAEDEADYYCQSYDSSLSGSVVFGGGTKLTVLG ) reads 0.00842

Field koff (entry mAb14235 (antibody, V domains shown) VH: QITLKESGPTLVKPTQTLTLTCTFSGFSLNTGGVGVGWIRQPPGNALEWLALIYWDDDKRYNPSLKTRLTISKDTSKNQVVLTMTNMDPVDTATYFCAHLTIAVIVDFWGQGTLVTVSS VL: QSALTQPASVSGSPGQSITISCTATSSDVGTYNYVSWFQHHPGKAPKLMIYEVTNRPSGVSNRFSGSKSGNTASLTISGLQAEDEADYYCSSYTTTSIVFGGGTKLTVLG ) reads 0.00114

Field koff (entry mAb14280 (antibody, V domains shown) VH: QVQLVQSGAEVKKPGASVRVSCKASGYTFTGNYIHWVRQAPGQGLEWMAWINPNSGGKNYAQKFQGRVTLTRDTSVNTAYMELSRLRSDDTAMYYCARDVNYNILTGPGGLWGQGTLVTVSS VL: QSALTQPPSASGSPGQSVTISCTGTSSDVGGYNFVSWYQQHPGKAPKLMIYEVSKRPSGVPDRFSGSKSGNTASLTVSGLQAEDEADYYCSSYAGSNNFVFGTGTKVTVLG ) reads 0.019

Provenance of the data: patent US20260069689A1
